Experiment: qHTS for Inhibitors of human tyrosyl-DNA phosphodiesterase 1 (TDP1): qHTS in cells in absence of CPT; further: nearly all actives have a fitted effect of over 55% in size; further: potency means the concentration at half of the fitted maximal effect
Conditions: DT40 Tdp1-/- hTDP1 cells, no CPT, ATP luminescence, 48 h
Among all 420,000 compounds or so, about 64,000 (15%) were called active. Inconclusive results (about 27%) are left out. A selection follows.
reported.endpoint: Potency

The following molecules have reported results that may help.
molecule	Potency
O=C(CSc1ccc(-c2cccs2)nn1)Nc1ccccc1F	inactive
CSCCC(NC(=O)COc1ccccc1)C(=O)OCc1ccc(Cl)cc1 (centres undefined)	inactive
CC(Sc1nc(-c2ccccc2)cc(C(F)(F)F)n1)C(=O)Nc1ccc2c(c1)OCO2 (centres undefined)	inactive
C[N+]1(CC(O)COc2ccccc2)CCN(C(=O)c2ccc([N+](=O)[O-])cc2)CC1 (centres undefined)	inactive
Cc1ccccc1C(=O)NCCN=C1NS(=O)(=O)c2ccccc21	inactive

Answer with the recorded Potency for the molecule listed here: Cc1ccc(F)cc1NC(=O)c1ccc2c(c1)OCO2 inactive

Answer with the recorded Potency for the molecule listed here: CC1Cc2cc(S(=O)(=O)CCC(=O)Nc3ccc(F)c(Cl)c3)ccc2N1C(=O)C1CC1 (centres undefined) 10.3 µM (active)

----------
Test: qHTS for Inhibitors of human tyrosyl-DNA phosphodiesterase 1 (TDP1): qHTS in cells in absence of CPT; further: nearly all actives have a fitted effect of over 55% in size
Conditions: DT40 Tdp1-/- hTDP1 cells, no CPT, ATP luminescence, 48 h
The whole screen tested about 420,000 compounds, of which about 64,000 (15%) were called active. About 27% were inconclusive and are not listed. Calls follow the shape of the dose curve; as a rule, active = well fitted inhibition curve with a large enough effect; inconclusive = small, poorly fitted or top-dose-only effect; inactive = flat fitted curve, though single readings scatter. Not all results are given here.
Please reply with one of these outcomes: y for active, n for inactive

Returns: the outcome recorded for CC(Cc1cccs1)NC(=O)c1cccc(Cl)c1 (stereo unspecified) in this assay. n

Returns: the outcome recorded for Cc1cc2nc3n(c2cc1C)CC1CC(C(=O)NCCC(C)C)N(C)C31 (stereo unspecified) in this assay. n

Returns: the outcome recorded for Cc1nn(Cc2ccccc2)c(C)c1CNC(=O)c1ccc(F)c(S(=O)(=O)N2CCOCC2)c1 in this assay. n

Returns: the outcome recorded for COc1ccc2c(c1)C(c1cccs1)=NNC(c1cccnc1)=N2 in this assay. n

Returns: the outcome recorded for CC1CCCN(c2cc3c(cc2F)c(=O)c(S(=O)(=O)c2cccc(Cl)c2)cn3Cc2ccccc2)C1 (stereo unspecified) in this assay. n

Returns: the outcome recorded for O=C(Nc1ccc([N+](=O)[O-])cc1)OCCc1ccccn1 in this assay. n

Returns: the outcome recorded for COc1ccc(N2CCN(C(=O)CN3C(=O)COc4ccccc43)CC2)cc1 in this assay. n

Returns: the outcome recorded for CCCN1CNC(=S)N(CCc2ccccc2)C1 in this assay. n

Returns: the outcome recorded for Cc1ccc(-c2nc(Cn3c(=O)cc(-c4ccccc4)c4c(C)nn(C)c43)c(C)o2)cc1 in this assay. n

Returns: the outcome recorded for CC1CC(=O)Nc2ccccc2N1S(=O)(=O)c1cccs1 (stereo unspecified) in this assay. n

Returns: the outcome recorded for Cc1cccc(S(=O)(=O)c2cn(Cc3ccccc3)c3cc(N4CCOCC4)c(F)cc3c2=O)c1 in this assay. y

Returns: the outcome recorded for COc1ccccc1CNC(=O)[C@@H]1CCCN1C(=O)[C@@H]1Cc2ccccc2CN1C(=O)OC(C)(C)C in this assay. y

Returns: the outcome recorded for COC(=O)c1ccc(COC(=O)c2cnccn2)cc1 in this assay. n

Returns: the outcome recorded for Cc1cc(C)n(CCNC(=O)CC2C(=O)NCCN2Cc2ccc(C)o2)n1 (stereo unspecified) in this assay. n

Returns: the outcome recorded for O=C(CCNS(=O)(=O)c1ccc(Br)s1)NCc1ccccc1Cl in this assay. n

Returns: the outcome recorded for CCC1=NN(C(=O)Cc2ccc([N+](=O)[O-])cc2)C(O)(c2ccc(Br)cc2)C1 (stereo unspecified) in this assay. n

Returns: the outcome recorded for CCOc1ccc(N(C)S(=O)(=O)c2cnc[nH]2)cc1 in this assay. n

Returns: the outcome recorded for COc1ccc(C2Nc3ccc(NC(=O)COC(C)=O)cc3C(=O)N2Cc2ccccc2)cc1COc1ccc(NC(C)=O)cc1 (stereo unspecified) in this assay. y

Returns: the outcome recorded for N#C/C(=C\c1cccc(F)c1)c1nc(-c2cc3c(ccc4ccccc43)oc2=O)cs1 in this assay. n

Returns: the outcome recorded for CC(C)[C@H](NC(=O)N1CC(=O)Nc2ccccc21)C(=O)N[C@@H](Cc1c[nH]c2ccccc12)C(=O)O in this assay. n

Returns: the outcome recorded for CCCCn1c(SCC(=O)NCC2CCCO2)nc2ccc(N3CCOCC3)cc2c1=O (stereo unspecified) in this assay. n

Returns: the outcome recorded for Cc1cc(F)ccc1N1CCC(N2CCN(C)C(CCO)C2)CC1 (stereo unspecified) in this assay. n

Returns: the outcome recorded for CCOC(=O)c1ccc(N2C(=O)CC(N3CC(C)OC(C)C3)C2=O)cc1 (stereo unspecified) in this assay. n

Returns: the outcome recorded for Nc1c(N(CCCO)C(=O)C2CCCC2)c(=O)[nH]c(=O)n1Cc1ccccc1 in this assay. n

Returns: the outcome recorded for CCn1cc(S(=O)(=O)c2cccc(C)c2)c(=O)c2cc(F)c(N3CCN(C)CC3)cc21 in this assay. n

Returns: the outcome recorded for COc1ccccc1CNC(=O)C1CCN(C(=O)[C@@H]2Cc3ccccc3CN2)CC1 in this assay. n

Returns: the outcome recorded for O=C(O)CCCn1c(=O)c2cccn2c2ccc(F)cc21 in this assay. y

Returns: the outcome recorded for COCCCNC(=O)CSc1nc2ccc(N3CCOCC3)cc2c(=O)n1CCc1ccccc1 in this assay. n

Returns: the outcome recorded for COc1ccc(-c2nc(Cn3c(=O)cc(C)c4c(C)nn(-c5ccccc5)c43)c(C)o2)c(OC)c1 in this assay. y

Returns: the outcome recorded for CN(Cc1ccc2nsnc2c1)Cc1nc(Cc2cccc(F)c2)no1 in this assay. n

Returns: the outcome recorded for COc1cc(C2C3=C(CCCC3=O)OC3=C2C(=O)CCC3)ccc1OCC(=O)Nc1ccccc1 in this assay. n

Returns: the outcome recorded for CC(C)(CNC(=O)CNC(=O)C1CCCCC1)N1CCOCC1 in this assay. n

Returns: the outcome recorded for CCc1cccc(NC(=O)CCNS(=O)(=O)c2cccc3nonc23)c1 in this assay. n

Returns: the outcome recorded for COc1ccc(CCNC(=O)CC2SC(=Nc3cc(C)cc(C)c3)NC2=O)cc1OC (stereo unspecified) in this assay. n

Returns: the outcome recorded for Cc1ccc(CC(=O)Nc2cccc(C#N)c2)cc1 in this assay. n

Returns: the outcome recorded for COc1ccc(N2C(=O)c3ccccc3NC2c2ccc(OC)c(CN3CCOCC3)c2)cc1 (stereo unspecified) in this assay. n

Returns: the outcome recorded for CCOC(=O)c1cc(C(C)C)sc1NC(=O)COC(=O)c1nccnc1N in this assay. n

Returns: the outcome recorded for O=Cc1cn(-c2ccccc2)nc1-c1ccccn1 in this assay. n

Returns: the outcome recorded for O=S(=O)(c1ccc(Sc2nnc3ccccn23)nc1)N1CCOCC1 in this assay. n

Returns: the outcome recorded for COc1ccc(-c2nc(Cn3c(=O)cc(C)c4c(C)nn(-c5ccccc5)c43)c(C)o2)cc1OC in this assay. n

Returns: the outcome recorded for COc1ccc2c(c1)NC(=O)C2CC(=O)N1CCOc2c(cc(-c3cnc4ccccc4c3)cc2OC)C1 (stereo unspecified) in this assay. y
